Below, each entry is listed with its recorded pIC50.
Target sequence: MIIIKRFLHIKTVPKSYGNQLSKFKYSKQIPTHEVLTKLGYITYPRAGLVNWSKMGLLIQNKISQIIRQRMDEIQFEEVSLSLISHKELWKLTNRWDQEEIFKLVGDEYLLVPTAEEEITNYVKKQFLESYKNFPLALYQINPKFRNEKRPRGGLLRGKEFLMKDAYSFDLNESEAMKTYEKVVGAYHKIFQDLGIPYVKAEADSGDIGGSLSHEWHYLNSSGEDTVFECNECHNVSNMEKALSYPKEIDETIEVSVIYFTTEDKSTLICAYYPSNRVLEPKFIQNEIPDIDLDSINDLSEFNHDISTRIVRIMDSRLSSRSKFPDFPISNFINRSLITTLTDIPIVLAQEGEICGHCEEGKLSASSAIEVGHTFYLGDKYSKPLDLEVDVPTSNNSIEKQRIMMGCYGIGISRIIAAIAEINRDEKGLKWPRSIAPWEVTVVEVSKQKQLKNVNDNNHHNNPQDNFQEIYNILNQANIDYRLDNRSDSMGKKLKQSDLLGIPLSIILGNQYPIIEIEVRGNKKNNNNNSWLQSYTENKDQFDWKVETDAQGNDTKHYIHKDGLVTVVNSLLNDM
pIC50: −log10 of the molar value.

{"columns": ["Compound", "Value Comparator", "pIC50"],
 "data": [
  ["O=C(O)c1cc(-c2ccc(C(F)(F)F)cc2)nc2ccccc12", "<", 4.00],
  ["O=C(O)c1cc(-c2ccncc2)nc2ccccc12", "<", 4.00],
  ["COC(=O)C(Cc1ccccc1)NC(=O)c1cc(-c2ccc(Br)cc2)nc2c(C)cc(Cl)cc12 (stereo unspecified)", "=", 5.24],
  ["O=C(O)/C=C/c1ccc2nc(-c3ccc(Br)cc3)cc(C(=O)O)c2c1", "=", 5.89],
  ["Cc1cc(Cl)cc2c(C(=O)OCc3ccc(-c4ccccc4)cc3)cc(-c3ccc(Br)cc3)nc12", "=", 5.06],
  ["O=C(O)c1cc(-c2ccc3ccccc3c2)nc2ccccc12", "=", 5.44]
]}

====

Target Or Test System: Bifunctional glutamate/proline--tRNA ligase (Homo sapiens, UniProt P07814)
Sequence (P07814 whole entry): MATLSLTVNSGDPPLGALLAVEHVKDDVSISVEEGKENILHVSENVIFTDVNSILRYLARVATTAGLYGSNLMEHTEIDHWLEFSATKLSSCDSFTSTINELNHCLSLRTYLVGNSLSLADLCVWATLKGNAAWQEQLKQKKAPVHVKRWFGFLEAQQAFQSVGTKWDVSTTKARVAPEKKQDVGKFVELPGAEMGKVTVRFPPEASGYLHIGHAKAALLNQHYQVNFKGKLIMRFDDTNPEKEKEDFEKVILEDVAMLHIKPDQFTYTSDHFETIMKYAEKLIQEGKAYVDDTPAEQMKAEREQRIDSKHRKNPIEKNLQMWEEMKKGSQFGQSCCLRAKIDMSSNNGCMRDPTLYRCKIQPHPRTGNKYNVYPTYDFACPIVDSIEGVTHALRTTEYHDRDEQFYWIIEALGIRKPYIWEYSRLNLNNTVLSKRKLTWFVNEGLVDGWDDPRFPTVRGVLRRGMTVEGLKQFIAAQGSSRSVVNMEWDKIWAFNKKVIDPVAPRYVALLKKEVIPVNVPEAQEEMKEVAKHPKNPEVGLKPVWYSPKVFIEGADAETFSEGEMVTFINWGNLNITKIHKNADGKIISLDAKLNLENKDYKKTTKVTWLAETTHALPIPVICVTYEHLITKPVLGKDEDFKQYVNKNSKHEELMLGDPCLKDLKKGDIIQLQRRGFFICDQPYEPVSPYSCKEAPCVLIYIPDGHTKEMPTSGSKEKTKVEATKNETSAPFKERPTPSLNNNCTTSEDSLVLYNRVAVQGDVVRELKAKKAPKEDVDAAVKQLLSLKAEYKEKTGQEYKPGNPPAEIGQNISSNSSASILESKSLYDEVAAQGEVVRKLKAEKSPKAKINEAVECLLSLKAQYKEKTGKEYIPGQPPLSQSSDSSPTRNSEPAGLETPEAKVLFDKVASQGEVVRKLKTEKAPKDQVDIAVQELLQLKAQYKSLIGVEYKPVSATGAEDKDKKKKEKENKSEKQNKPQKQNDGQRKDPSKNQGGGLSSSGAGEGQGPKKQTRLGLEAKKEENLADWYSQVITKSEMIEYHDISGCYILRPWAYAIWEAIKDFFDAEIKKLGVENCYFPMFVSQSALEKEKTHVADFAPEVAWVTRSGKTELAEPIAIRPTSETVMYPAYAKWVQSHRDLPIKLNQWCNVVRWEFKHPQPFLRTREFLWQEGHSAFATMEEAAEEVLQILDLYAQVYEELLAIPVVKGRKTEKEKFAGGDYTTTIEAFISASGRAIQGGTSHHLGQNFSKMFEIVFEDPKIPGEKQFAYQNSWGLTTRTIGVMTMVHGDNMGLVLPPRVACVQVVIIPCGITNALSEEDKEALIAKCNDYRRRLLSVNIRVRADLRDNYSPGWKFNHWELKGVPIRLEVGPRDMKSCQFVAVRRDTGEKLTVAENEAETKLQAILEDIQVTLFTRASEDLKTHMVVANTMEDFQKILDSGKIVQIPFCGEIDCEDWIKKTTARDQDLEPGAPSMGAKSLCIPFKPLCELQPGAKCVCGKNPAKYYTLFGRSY
Protocol Description: Aminoacylation activity against human prolyl-tRNA synthetase
Below, each entry is listed with its recorded IC50.

{"columns": ["Compound", "IC50"],
 "data": [
  ["Cc1c(Br)ccc2c(C(=O)O)cc(-c3ccc(Br)cc3)nc12", "70 µM"],
  ["Cc1cc(Cl)c2nc(-c3ccc(Br)cc3)cc(C(=O)O)c2c1", "> 20 µM"],
  ["Cc1cc(C)c2nc(-c3ccc(Br)cc3)cc(C(=O)O)c2c1", "> 100 µM"],
  ["Cc1cc(Cl)cc2c(C(=O)O)cc(-c3ccc(Br)cc3)nc12", "> 20 µM"],
  ["O=C(O)c1cc(-c2ccc(Cl)c(Cl)c2)nc2ccccc12", "> 100 µM"],
  ["Cc1cc(Cl)cc2c(C(=O)OCc3ccc(Cl)c(Cl)c3)cc(-c3ccc(Br)cc3)nc12", "> 100 µM"],
  ["COC(=O)C(Cc1ccccc1)NC(=O)c1cc(-c2ccc(Br)cc2)nc2c(C)cc(Cl)cc12 (configuration not stated)", "> 100 µM"],
  ["O=C(O)c1cc(-c2ccncc2)nc2ccccc12", "> 100 µM"],
  ["Nc1ccc2nc(-c3ccc(Br)cc3)cc(C(=O)O)c2c1", "95 µM"],
  ["O=C(O)c1cc(-c2ccc(Br)cc2)nc2c(CO)cc(Cl)cc12", "> 100 µM"],
  ["O=C(O)c1cc(-c2ccc(Br)cc2)nc2ccc(S(=O)(=O)O)cc12", "> 100 µM"],
  ["O=C(O)c1cc(-c2ccc(Br)cc2)nc2ccc(Cl)cc12", "> 20 µM"],
  ["O=C(O)c1cc(-c2ccc(Br)cc2)nc2c(C(F)(F)F)cc(Br)cc12", "56 µM"],
  ["O=C(O)c1cc(-c2ccc3ccccc3c2)nc2ccccc12", "> 100 µM"],
  ["O=C(O)c1cc(-c2ccc(Br)cc2)nc2ccccc12", "> 100 µM"],
  ["O=C(O)/C=C/c1ccc2nc(-c3ccc(Br)cc3)cc(C(=O)O)c2c1", "80 µM"],
  ["O=C(O)c1cc(-c2ccc(Br)cc2)nc2cc(Cl)cc(Cl)c12", "> 100 µM"],
  ["Cc1c(F)ccc2c(C(=O)O)cc(-c3ccc(Br)cc3)nc12", "60 µM"],
  ["Cc1cc(Cl)cc2c(C(=O)OCc3ccc(-c4ccccc4)cc3)cc(-c3ccc(Br)cc3)nc12", "> 100 µM"],
  ["COc1ccc(-c2cc(C(=O)O)c3ccccc3n2)cc1", "> 100 µM"],
  ["Cc1cc(Cl)cc2nc(-c3ccc(Br)cc3)cc(C(=O)O)c12", "> 100 µM"],
  ["O=C(O)c1cc(-c2ccc(Br)cc2)nc2ccc(I)cc12", "> 100 µM"]
]}
